target: serotonine (5-HT) reuptake in synaptosomes (Rattus norvegicus); construct: serotonine (5-HT) in synaptosomes as described in WO 97/16451; assay: Inhibition of 5-HT reuptake in synaptosomes; settings: 3H-5-HT, read-out: 5-HT-uptake IC50
Sequence (P31652 whole entry): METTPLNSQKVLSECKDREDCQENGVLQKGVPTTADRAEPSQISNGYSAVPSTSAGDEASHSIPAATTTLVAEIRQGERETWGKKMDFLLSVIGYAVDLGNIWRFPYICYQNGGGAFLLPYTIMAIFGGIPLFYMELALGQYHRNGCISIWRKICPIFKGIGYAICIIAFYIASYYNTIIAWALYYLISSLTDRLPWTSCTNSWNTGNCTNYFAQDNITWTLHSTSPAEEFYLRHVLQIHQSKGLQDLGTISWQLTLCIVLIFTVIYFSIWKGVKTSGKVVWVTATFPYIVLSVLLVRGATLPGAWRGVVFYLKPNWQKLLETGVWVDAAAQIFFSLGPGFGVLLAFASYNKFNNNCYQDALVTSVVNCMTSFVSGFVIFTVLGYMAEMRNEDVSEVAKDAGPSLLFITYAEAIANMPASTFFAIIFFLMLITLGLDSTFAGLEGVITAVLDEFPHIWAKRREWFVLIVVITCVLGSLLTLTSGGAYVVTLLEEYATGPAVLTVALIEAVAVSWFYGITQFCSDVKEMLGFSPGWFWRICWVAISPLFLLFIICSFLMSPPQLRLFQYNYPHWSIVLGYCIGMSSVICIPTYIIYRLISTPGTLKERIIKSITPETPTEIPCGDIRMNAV
measured property: IC50 (nM)

CCN(C(=O)C1CCNCC1)c1ccc(Br)c(Br)c1: 120

[a] CCN(C(=O)C1CCNCC1)c1ccc(Cl)c(Br)c1
[b] CCN(C(=O)C1CCNCC1)c1ccc(Cl)c(Cl)c1.O=C(O)C(F)(F)F [Compound C1, trifluoroacetic acid salt]
Prompt: Parameter check: reported IC50 is higher for which label, a or b ? The response must carry the label of the picked entry.
Completion: b
(b: 370 nM, a: 140 nM)

* * *

biological target: dopamine (DA) reuptake in synaptosomes (Rattus norvegicus, UniProt P23977); construct: in synaptosomes as described in WO 97/16451; assay: Inhibition of DA reuptake in synaptosomes; conditions: 3H-DA, read-out: DA-uptake IC50
Sequence (P23977 whole entry): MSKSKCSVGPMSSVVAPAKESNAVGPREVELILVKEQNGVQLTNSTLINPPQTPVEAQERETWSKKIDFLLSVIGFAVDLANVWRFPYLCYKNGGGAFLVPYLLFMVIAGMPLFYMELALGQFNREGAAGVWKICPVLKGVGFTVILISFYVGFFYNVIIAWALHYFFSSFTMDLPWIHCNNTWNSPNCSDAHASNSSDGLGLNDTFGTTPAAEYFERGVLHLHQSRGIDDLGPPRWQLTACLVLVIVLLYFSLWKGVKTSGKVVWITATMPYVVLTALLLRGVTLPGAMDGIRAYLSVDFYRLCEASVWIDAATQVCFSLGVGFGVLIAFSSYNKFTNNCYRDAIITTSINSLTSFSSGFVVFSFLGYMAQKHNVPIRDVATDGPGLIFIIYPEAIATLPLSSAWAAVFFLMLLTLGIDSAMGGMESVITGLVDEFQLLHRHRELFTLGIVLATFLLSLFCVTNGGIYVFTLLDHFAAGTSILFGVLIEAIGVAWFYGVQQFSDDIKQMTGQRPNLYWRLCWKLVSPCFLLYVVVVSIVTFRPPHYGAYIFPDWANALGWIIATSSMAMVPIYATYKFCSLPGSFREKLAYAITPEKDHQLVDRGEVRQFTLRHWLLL
measured property: IC50 (nM)

CCN(C(=O)C1CCNCC1)c1ccc(Cl)c(Br)c1: 7.8

[A] CCN(C(=O)C1CCNCC1)c1ccc(Cl)c(Cl)c1.O=C(O)C(F)(F)F [Compound C1, trifluoroacetic acid salt]
[B] CCN(C(=O)C1CCNCC1)c1ccc(Br)c(Br)c1
Prompt: Param metric = IC50; output whichever of A , B has the minimum value. Pick one; state its label.
Completion: B
